Catalogue of compounds with associated inhibition
# Species on record: Rattus norvegicus
# experimental_details: Inhibition of rat microsomal SOAT assessed as reduction in cholesteryl oleate formation from oleoyl co-enzyme A at 10 uM pretreated for 15 mins followed by oleoyl co-enzyme A addition measured after 10 mins by HPTLC method relative to control

>  <input_smiles>
Cc1ccc(-c2nc(NC(=O)Nc3ccccc3)sc2-c2ccc(Cl)cc2)cc1

>  <inhibition>
9.58%

$$$$
>  <input_smiles>
CCCCCCCCCCCCNc1ccc(-c2sc(NC(=O)NCCCC)nc2-c2ccc(OC)cc2)cc1

>  <inhibition>
3.36%

$$$$
>  <input_smiles>
Cc1ccc(-c2nc(C)sc2-c2ccc(NC(=O)NCCN3CCOCC3)cc2)cc1

>  <inhibition>
19%

$$$$
>  <input_smiles>
CCCCNC(=O)Nc1nc(-c2ccc(OC)cc2)c(-c2ccc(NS(C)(=O)=O)cc2)s1

>  <inhibition>
5.45%

$$$$
>  <input_smiles>
COc1ccc(-c2nc(NC(=O)Nc3ccc(F)cc3F)sc2-c2ccc(NC(C)C)cc2)cc1

>  <inhibition>
51.7%

$$$$
>  <input_smiles>
CCCCNC(=O)Nc1ccc(-c2sc(C)nc2-c2ccc(C)cc2)cc1

>  <inhibition>
64.9%

$$$$
>  <input_smiles>
CCCCNC(=O)Nc1nc(-c2ccc(OC)cc2)c(-c2ccc(NC(C)C)cc2)s1

>  <inhibition>
4.67%

$$$$
>  <input_smiles>
CCCCCCCNC(=O)Nc1ccc(-c2nonc2-c2ccc(F)cc2)cc1

>  <inhibition>
30.9%

$$$$
>  <input_smiles>
CC(=O)Nc1ccc(-c2sc(NC(=O)Nc3ccc(F)cc3F)nc2-c2ccc(Cl)cc2)cc1

>  <inhibition>
2.03%

$$$$
>  <input_smiles>
CCc1cccc(CC)c1NC(=O)Nc1ccc(-c2nonc2-c2ccc(F)cc2)cc1

>  <inhibition>
44.9%

$$$$
>  <input_smiles>
Cc1ccc(-c2nc(C)sc2-c2ccc(NC(=O)Nc3ccccc3)cc2)cc1

>  <inhibition>
13.4%

$$$$
>  <input_smiles>
CCCCNC(=O)Nc1nc(-c2ccc(F)cc2)c(-c2ccc([N+](=O)[O-])cc2)s1

>  <inhibition>
2.98%

$$$$
>  <input_smiles>
Cc1nc(-c2ccc(Cl)cc2)c(-c2ccc(NC(=O)Nc3ccc(F)cc3F)cc2)s1

>  <inhibition>
1.3%

$$$$
>  <input_smiles>
CCCCCCCCCCCCNC(=O)Nc1nc(-c2ccccc2)c(-c2ccccc2)s1

>  <inhibition>
1.2%

$$$$
>  <input_smiles>
CCCCNC(=O)Nc1nc(-c2ccc(Cl)cc2)c(-c2ccc(NC(C)=O)cc2)s1

>  <inhibition>
3.75%

$$$$
>  <input_smiles>
CS(=O)(=O)Nc1ccc(-c2sc(NC(=O)Nc3ccc(F)cc3F)nc2-c2ccc(F)cc2)cc1

>  <inhibition>
18.9%

$$$$
>  <input_smiles>
CCCCNC(=O)Nc1nc(-c2ccc(C)cc2)c(-c2ccc(NC(C)=O)cc2)s1

>  <inhibition>
5.23%

$$$$
>  <input_smiles>
CCc1cccc(CC)c1NC(=O)Nc1nc(-c2ccc(C)cc2)c(-c2ccc([N+](=O)[O-])cc2)s1

>  <inhibition>
1.03%

$$$$
>  <input_smiles>
CCCCNC(=O)Nc1nc(-c2ccc(F)cc2)c(-c2ccc(NS(C)(=O)=O)cc2)s1

>  <inhibition>
0.43%

$$$$
>  <input_smiles>
CS(=O)(=O)Nc1ccc(-c2sc(NC(=O)Nc3ccc(F)cc3F)nc2-c2ccc(Cl)cc2)cc1

>  <inhibition>
6.39%

$$$$
>  <input_smiles>
CCc1cccc(CC)c1NC(=O)Nc1nc(-c2ccc(C)cc2)c(-c2ccc(Cl)cc2)s1

>  <inhibition>
1.52%

$$$$
>  <input_smiles>
COc1ccc(-c2nc(NC(=O)Nc3ccc(F)cc3F)sc2-c2ccc([N+](=O)[O-])cc2)cc1

>  <inhibition>
3.4%

$$$$
>  <input_smiles>
CCCCCCCCCCCCNC(=O)Nc1ccc(-c2sc(C)nc2-c2ccc(OC)cc2)cc1

>  <inhibition>
27.5%

$$$$
>  <input_smiles>
CCCCNC(=O)Nc1nc(-c2ccc(F)cc2)c(-c2ccc(Cl)cc2)s1

>  <inhibition>
3.3%

$$$$
